protocol: Pharmacokinetics: quantitative determination of compounds in mice plasma
Assay type: in vivo, C57BL/6 Mice
stated_conditions: 10 mg/kg PO single dose, vehicle 10% NMP
measurement_label: T½ (min)

>>> print(df.to_string())
                                   molecule  value_unit  value_reported
0  CN1C(=O)CC[C@@]2(C)C1=CCC1C2[C@@H](O)C[C@@]2(C)C1CC[C@@H]2NC(=O)C1CC1 (stereo partly shown)         min              62
1  CN(C)C(=O)[C@H]1CCC2C3CCC4=CC(=O)N(C)CC[C@]4(C)C3[C@@H](O)C[C@@]21C (stereo partly shown)         min            25.4
2  CC(C)CCNC(=O)C1CCC2C3CC=C4N(C)C(=O)CC[C@]4(C)C3[C@@H](O)C[C@]12C (stereo partly shown)         min            66.6
3  CNC(=O)[C@H]1CCC2C3CC=C4N(C)C(=O)CC[C@]4(C)C3[C@@H](O)C[C@@]21C (stereo partly shown)         min              56

###

protocol: Pharmacokinetics: quantitative determination of compounds in mice brains
Format: in vivo, C57BL/6 Mice
stated_conditions: C57BL/6, mouse, brain, 10 mg/kg PO single dose, vehicle 10% NMP
measurement_label: AUC(0-t) (ng·h/mL)

                                   compound  value_reported
0  CC(C)CCNC(=O)C1CCC2C3CC=C4N(C)C(=O)CC[C@]4(C)C3[C@@H](O)C[C@]12C (stereo partly drawn)            1640
1  CNC(=O)[C@H]1CCC2C3CC=C4N(C)C(=O)CC[C@]4(C)C3[C@@H](O)C[C@@]21C (stereo partly drawn)            2500
2  CN1C(=O)CC[C@@]2(C)C1=CCC1C2[C@@H](O)C[C@@]2(C)C1CC[C@@H]2NC(=O)C1CC1 (stereo partly drawn)             487

###

protocol: Pharmacokinetics: quantitative determination of compounds in mice plasma
Assay type: in vivo, C57BL/6 Mice
stated_conditions: C57BL/6, mouse, 10 mg/kg PO single dose, vehicle 10% NMP
Items are presented alongside their recorded AUC(0-inf).
measurement_label: AUC(0-inf) (ng·h/mL)

>>> df
                                   compound  measurement_label  value_unit  value_reported
0  CN(C)C(=O)[C@H]1CCC2C3CCC4=CC(=O)N(C)CC[C@]4(C)C3[C@@H](O)C[C@@]21C (stereo partly shown) [Compound 50]         AUC(0-inf)     ng·h/mL            2540
1  CNC(=O)[C@H]1CCC2C3CC=C4N(C)C(=O)CC[C@]4(C)C3[C@@H](O)C[C@@]21C (stereo partly shown) [Compound 40]         AUC(0-inf)     ng·h/mL            2430
2  CN1C(=O)CC[C@@]2(C)C1=CCC1C2[C@@H](O)C[C@@]2(C)C1CC[C@@H]2NC(=O)C1CC1 (stereo partly shown) [Compound 26]         AUC(0-inf)     ng·h/mL             993
3  CC(C)CCNC(=O)C1CCC2C3CC=C4N(C)C(=O)CC[C@]4(C)C3[C@@H](O)C[C@]12C (stereo partly shown) [Compound 36]         AUC(0-inf)     ng·h/mL            1640

###

protocol: Pharmacokinetics: quantitative determination of compounds in mice plasma
Format: in vivo, C57BL/6 Mice
stated_conditions: C57BL/6, mouse, 10 mg/kg PO single dose, vehicle 10% NMP
Items are presented alongside their recorded Cmax.
measurement_label: Cmax (ng/mL)

In [3]: df
Out[3]:
                                   compound  measurement_label  value_reported
0  CN(C)C(=O)[C@H]1CCC2C3CCC4=CC(=O)N(C)CC[C@]4(C)C3[C@@H](O)C[C@@]21C (stereo partly shown)               Cmax            2900
1  CNC(=O)[C@H]1CCC2C3CC=C4N(C)C(=O)CC[C@]4(C)C3[C@@H](O)C[C@@]21C (stereo partly shown)               Cmax            2200
2  CC(C)CCNC(=O)C1CCC2C3CC=C4N(C)C(=O)CC[C@]4(C)C3[C@@H](O)C[C@]12C (stereo partly shown)               Cmax            1960
3  CN1C(=O)CC[C@@]2(C)C1=CCC1C2[C@@H](O)C[C@@]2(C)C1CC[C@@H]2NC(=O)C1CC1 (stereo partly shown)               Cmax            2130

###

Items are presented alongside their recorded AUC(0-t).
protocol: Pharmacokinetics: quantitative determination of compounds in mice plasma
Type: in vivo, C57BL/6 Mice
stated_conditions: C57BL/6, mouse, 10 mg/kg PO single dose, vehicle 10% NMP
measurement_label: AUC(0-t) (ng·h/mL)

>>> df
                                   molecule  value_reported
0  CN(C)C(=O)[C@H]1CCC2C3CCC4=CC(=O)N(C)CC[C@]4(C)C3[C@@H](O)C[C@@]21C (stereo partly shown)            2450
1  CC(C)CCNC(=O)C1CCC2C3CC=C4N(C)C(=O)CC[C@]4(C)C3[C@@H](O)C[C@]12C (stereo partly shown)            1500
2  CNC(=O)[C@H]1CCC2C3CC=C4N(C)C(=O)CC[C@]4(C)C3[C@@H](O)C[C@@]21C (stereo partly shown)            2300
3  CN1C(=O)CC[C@@]2(C)C1=CCC1C2[C@@H](O)C[C@@]2(C)C1CC[C@@H]2NC(=O)C1CC1 (stereo partly shown)             930

Origin of the recorded values: patent US20240270786A1
